- System: Pseudomonas aeruginosa
- test_protocol: Antimicrobial activity against Pseudomonas aeruginosa ATCC 27953 at 100 ug/ml after 24 hrs by agar well diffusion assay
- Assay type: functional
- measurement_setup: ATCC 27953, 24 h, read-out: DIZ
Kindly supply the reported zone of inhibition at 100 µg/mL values for the records listed here.
Respond with the bare value in mm.

Request: If you can, please state the reported zone of inhibition at 100 µg/mL value of Cc1ccc(-n2nnc(C3=NN(c4nc(-c5ccccc5)cs4)C(c4ccc(F)cc4)C3)c2C)cc1 (centres undefined) .
Result: 28

Request: If you can, please state the reported zone of inhibition at 100 µg/mL value of `Cc1ccc(-n2nnc(C(=O)/C=C/c3ccc(F)cc3)c2C)cc1` .
Result: 16

Request: If you can, please state the reported zone of inhibition at 100 µg/mL value of `Cc1ccc(-n2nnc(C(=O)/C=C/c3ccc(N4CCCCC4)cc3)c2C)cc1` .
Result: 16

Request: If you can, please state the reported zone of inhibition at 100 µg/mL value of Cc1ccc(-n2nnc(C3=NN(C(=S)NC(=O)c4ccccc4)C(c4ccc(N5CCCCC5)cc4)C3)c2C)cc1 (centres undefined) .
Result: 26

Request: If you can, please state the reported zone of inhibition at 100 µg/mL value of Cc1ccc(-n2nnc(C3=NNC(c4ccc(F)cc4)C3)c2C)cc1 (centres undefined) .
Result: 30

Request: If you can, please state the reported zone of inhibition at 100 µg/mL value of Cc1ccc(-n2nnc(C3=NN(C4=NC(=O)CS4)C(c4ccc(F)cc4)C3)c2C)cc1 (centres undefined) .
Result: 20

Request: If you can, please state the reported zone of inhibition at 100 µg/mL value of Cc1ccc(-n2nnc(C3=NN(C(=S)Nc4ccccc4)C(c4ccccc4)C3)c2C)cc1 (centres undefined) .
Result: 24

Request: If you can, please state the reported zone of inhibition at 100 µg/mL value of Cc1ccc(-n2nnc(C3=NNC(c4ccc(C#N)cc4)C3)c2C)cc1 (centres undefined) .
Result: 28

Request: If you can, please state the reported zone of inhibition at 100 µg/mL value of Cc1ccc(-n2nnc(C3=NN(C(N)=S)C(c4ccc(F)cc4)C3)c2C)cc1 (centres undefined) .
Result: 26

Request: If you can, please state the reported zone of inhibition at 100 µg/mL value of Cc1ccc(-n2nnc(C3=NNC(c4ccccc4)C3)c2C)cc1 (centres undefined) .
Result: 28

Request: If you can, please state the reported zone of inhibition at 100 µg/mL value of Cc1ccc(-n2nnc(C3=NN(c4nc(-c5ccc(Cl)cc5)cs4)C(c4ccc(F)cc4)C3)c2C)cc1 (centres undefined) .
Result: 24

Request: If you can, please state the reported zone of inhibition at 100 µg/mL value of `Cc1ccc(-n2nnc(C(=O)/C=C/c3ccccc3)c2C)cc1` .
Result: 28

Request: If you can, please state the reported zone of inhibition at 100 µg/mL value of Cc1ccc(-n2nnc(C3=NN(C(=S)Nc4ccccc4)C(c4ccc(C#N)cc4)C3)c2C)cc1 (centres undefined) .
Result: 22

Request: If you can, please state the reported zone of inhibition at 100 µg/mL value of `Cc1ccc(-n2nnc(C(=O)/C=C/c3ccc(C#N)cc3)c2C)cc1` .
Result: 26
